Target chain: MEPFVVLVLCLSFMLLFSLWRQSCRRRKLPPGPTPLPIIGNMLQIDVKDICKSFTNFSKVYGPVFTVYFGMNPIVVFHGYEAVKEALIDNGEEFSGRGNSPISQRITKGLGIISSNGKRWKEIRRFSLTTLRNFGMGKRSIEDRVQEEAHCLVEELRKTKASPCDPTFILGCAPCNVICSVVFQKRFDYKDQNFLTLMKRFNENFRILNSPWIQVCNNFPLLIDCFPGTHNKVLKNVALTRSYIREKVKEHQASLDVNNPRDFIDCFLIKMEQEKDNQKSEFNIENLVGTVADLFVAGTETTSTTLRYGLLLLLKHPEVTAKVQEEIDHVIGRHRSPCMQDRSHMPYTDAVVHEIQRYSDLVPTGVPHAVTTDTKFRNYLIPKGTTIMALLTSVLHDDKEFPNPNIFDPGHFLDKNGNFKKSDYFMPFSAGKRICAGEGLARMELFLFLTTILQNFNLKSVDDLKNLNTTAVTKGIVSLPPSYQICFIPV
EXPERIMENTAL_READOUT: Ki
State the value with its unit after it.

Task: // query Ki value for entry CC(O)c1ccc(CCOc2ccc(CC3SC(=O)NC3=O)cc2)nc1 (racemic)
Result: 84 µM
